tested on: RAW264.7; assay: Antiinflammatory activity against LPS induced mouse RAW264.7 cells assessed as decrease in PGE2 production at 50 uM after 24 hrs by ELISA; type: functional; parameters: scale not given: the % may be the effect or the level left

Molecule	Activity
COc1cc(/C=N/C2=NNC(=O)C2c2ccc(Cl)nn2)cc(OC)c1OC (centres undefined)	44%
Cc1ccc(-c2cc(C(F)(F)F)nn2-c2ccc(S(N)(=O)=O)cc2)cc1	69%
COc1cc(/C=N/C2=NN=C(N)C2c2ccc(Cl)nn2)cc(OC)c1OC (centres undefined)	64%
NC1=NN=C(/N=C/c2ccc(Br)cc2)C1c1ccc(Cl)nn1 (centres undefined)	60%
